Attribution: the supplement of paper PMC9732359

experiment: protein stability index of a GFP-peptide fusion (yeast GPS) (PSI 1-4); higher = more stable; sorted into four equal gates, so the index is relative within each strain; conditions: ubr1∆
Classify by protein stability index. Ranges: low = under 2, mid = from 2 up to 3, high = 3 and over

Tag the class for DVNALKFNNTQRESQIG [SNF12]
high

Tag the class for LDQLLVLEKKTRQASDL [RPN5]
mid

Tag the class for SDSIEKIVEIDRHIGCA [PUP2]
mid

Tag the class for ISCPLIGVIQLAHYVVT [FAS1]
low

Tag the class for IYSSDAQGDPNLEPLIA [NUT1]
high

Tag the class for MNHDPFSWGRPADSTYG [PRE4]
high

Tag the class for LKDSKDFDESLKYLDDL [RPN9]
mid

Tag the class for TEEKCKNFIESESVGAF [YJL039C/NUP192]
high

Tag the class for VGVDQLSIELEGGKNQA [YJL039C/NUP192]
mid

Tag the class for TQPKSSSSMDMQANTNA [SSN3]
mid

Tag the class for MNMFGGGMGGGMGGGMP [SRP54]
low

---

assay: protein stability index of a GFP-peptide fusion (yeast GPS) (PSI 1-4); higher = more stable; sorted into four equal gates, so the index is relative within each strain; conditions: pdr5∆
Field: protein stability index. Provide a value for each of the sequences that follow.
I only need the number, thanks.

Record RLLEKSELPDIYSRDIG [SNF2] , field protein stability index: 3.37

Record TNKDIICQIISSTITGD [RPL5] , field protein stability index: 2.13

Record KLVRESELLGGTFKSTL [QCR2] , field protein stability index: 2.82

Record KLNTFNLQTFTHEQWSN [SRP72] , field protein stability index: 2.83

Record GLNNDFLFQNINFERID [GRR1] , field protein stability index: 2.16

Record CKRELAFVKQKNDSLEK [YIL149C/MLP2] , field protein stability index: 3.33

Record LGMGKAVEKTLALGCHF [POP7] , field protein stability index: 2.16

Record VKGTNISEKDLVPKRCL [RPO31] , field protein stability index: 3.39

Record IISSNENALIELKNELA [YIL149C/MLP2] , field protein stability index: 2.93

Record LQNLQRIIRKKIFIAVV [RRI2] , field protein stability index: 1.19

Record GELRDYIEDFLLVIGGN [YJR042W/NUP85] , field protein stability index: 2.38

Record IKTFLVDLTSSNFADSA [YDL116W/NUP84] , field protein stability index: 2.82

Record TAQKYPIYTGDGWVKLT [YMR153W/NUP53] , field protein stability index: 1.77

Record HINKKSQLDLFLRTMKL [GRR1] , field protein stability index: 2.33

---

assay: protein stability index of a GFP-peptide fusion (yeast GPS) (PSI 1-4); higher = more stable; sorted into four equal gates, so the index is relative within each strain; conditions: doa10∆
Field: protein stability index. Provide a value for each of the sequences that follow.
I only need the number, thanks.

Record LRAAQQQWGNDFYKRDP [FAS2] , field protein stability index: 2.44

Record IANMVLPPEKIYSPLHS [SIR2] , field protein stability index: 1.54

Record IEAASTTQDQCKLTLDI [RPB8] , field protein stability index: 2.92

Record RSNKIKVVKTPGGILRA [RPL34A] , field protein stability index: 2.64

Record DQRDELLEQKKSIINSQ [ITC1] , field protein stability index: 3.08

Record SIIKAKLPLLNESLIPL [YML103C/NUP188] , field protein stability index: 1.68

Record EPIKVNVRVGQAVETVG [RPN1] , field protein stability index: 1.41

Record KNDSAEVRQETQPKAEA [NUT1] , field protein stability index: 3.35

Record NPTEFDWPTYVDQNPLT [SRB8] , field protein stability index: 2.85

Record AYILAAQKTSFEYEGVQ [RPN1] , field protein stability index: 2.39

Record IIDHIPGHSLLLSIKLP [SNF5] , field protein stability index: 1.96

Record NENDKIYLLFQSSGKLK [YDL116W/NUP84] , field protein stability index: 2.43

Record PTLPRSDRECPKCHSRE [RPB9] , field protein stability index: 2.79

Record DGHLRAPLKHGVGILYK [BRR2] , field protein stability index: 1.31
